# Tested on: HEPG2
# Test protocol: Euclidean distance of Cell Painting phenotypic profile (signed KS, 77 features) to DMSO centroid (dimensionless distance); 5 or 10 uM (library dependent); higher = stronger phenotypic change vs DMSO (phenoactivity)
# Condition info: 48 h
Where a name gives a salt, the structure may show the parent alone.
Quantity name: Euclidean distance
// no unit string in output, number only

Look over these answered cases.
Item: "Nc1nc(N)c(N=O)c(OCC2CCCCC2)n1" | System: HEPG2 | Euclidean distance: 0.792

Item: COC(=O)CCc1ccc(OCC(O)CNC(C)C)cc1 (stereo not given) [Esmolol HCl] | System: HEPG2 | Euclidean distance: 0.386

Continuing:
Item: CC(C)(C)NC[C@H](O)COc1nsnc1N1CCOCC1 [Timolol Maleate] | System: HEPG2 | Euclidean distance: 0.591

Item: "CC(C)C[C@H](NC(=O)CNC(=O)c1cc(Cl)ccc1Cl)B(O)O" | System: HEPG2 | Euclidean distance: 4.44

Item: "O=C(Nc1ccccc1)N1CCN(c2nc(-c3ccccc3)ns2)CC1" | System: HEPG2 | Euclidean distance: 1.34

Item: COCC(=O)Nc1c(I)c(C(=O)NCC(O)CO)c(I)c(C(=O)N(C)CC(O)CO)c1I (stereo not given) [Iopromide] | System: HEPG2 | Euclidean distance: 0.445

Item: CN1CCC(=C2c3ccccc3C=Cc3ccccc32)CC1 [Cyproheptadine HCl] | System: HEPG2 | Euclidean distance: 2.64

Item: COc1cc(CNC(=O)CCCC/C=C\C(C)C)ccc1O [Zucapsaicin] | System: HEPG2 | Euclidean distance: 0.98
